Data credit: patent US20250129067A1

Some compounds, each annotated with its measured IC50.
# target or system: PDGFRα (Homo sapiens (Human))
# Sequence (P16234 24-1089): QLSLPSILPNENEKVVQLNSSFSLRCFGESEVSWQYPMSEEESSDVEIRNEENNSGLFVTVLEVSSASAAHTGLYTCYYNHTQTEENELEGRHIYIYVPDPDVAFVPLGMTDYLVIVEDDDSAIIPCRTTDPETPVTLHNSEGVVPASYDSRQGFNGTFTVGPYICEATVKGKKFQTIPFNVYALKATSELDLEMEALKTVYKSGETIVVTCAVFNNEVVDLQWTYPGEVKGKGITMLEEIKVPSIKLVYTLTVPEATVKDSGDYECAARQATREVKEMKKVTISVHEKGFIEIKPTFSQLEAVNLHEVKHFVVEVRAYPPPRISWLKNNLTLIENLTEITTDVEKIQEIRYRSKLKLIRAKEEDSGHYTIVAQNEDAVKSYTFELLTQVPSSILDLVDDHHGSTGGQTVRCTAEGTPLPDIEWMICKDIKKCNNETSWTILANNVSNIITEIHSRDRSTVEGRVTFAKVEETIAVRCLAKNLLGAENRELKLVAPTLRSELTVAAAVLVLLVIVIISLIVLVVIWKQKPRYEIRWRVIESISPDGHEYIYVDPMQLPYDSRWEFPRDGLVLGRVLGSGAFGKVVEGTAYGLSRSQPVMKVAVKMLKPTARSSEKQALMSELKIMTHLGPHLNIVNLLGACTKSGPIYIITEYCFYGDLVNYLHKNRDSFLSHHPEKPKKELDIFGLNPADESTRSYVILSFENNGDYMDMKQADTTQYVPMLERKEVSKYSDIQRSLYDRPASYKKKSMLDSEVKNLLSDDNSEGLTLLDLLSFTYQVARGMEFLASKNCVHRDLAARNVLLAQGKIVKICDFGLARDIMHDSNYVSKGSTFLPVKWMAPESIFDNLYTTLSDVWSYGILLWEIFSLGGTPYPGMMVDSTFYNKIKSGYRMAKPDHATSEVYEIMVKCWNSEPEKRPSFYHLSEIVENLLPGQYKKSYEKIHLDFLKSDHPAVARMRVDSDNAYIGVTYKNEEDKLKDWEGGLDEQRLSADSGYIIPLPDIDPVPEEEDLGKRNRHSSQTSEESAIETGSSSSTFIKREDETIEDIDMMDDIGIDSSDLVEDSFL
# experiment summary: PDGFRα kinase enzyme assay (Promega PDGFRα Kinase Enzyme System, ADP-Glo)
# Type: biochemical
# study conditions: 11-point dose response, 10,000 nM to 0.169 nM; 150 uM ATP; BLQ = below limit of quantitation; read-out: IC50 Values on PDGFRα Kinase Inhibition, IC50

{"compound": "CC(C)(C)OC(=O)N1CCN(c2cnc3cc(C4CCOC4)ncn23)CC1 (centres unmarked) [Compound 90]", "u": "nM", "modifier": ">", "IC50": 10000}
{"compound": "CC(C)(C)OC(=O)N1CCN(c2cnn3cc(-c4cn(CCCN5CCOCC5)cn4)ccc23)CC1 [Compound 231]", "u": "nM", "modifier": "=", "IC50": 395}
{"compound": "Cc1nn(C)cc1-c1ccc2c(N3CCN(C(=O)OC(C)(C)C)CC3)cnn2c1 [Compound 220]", "u": "nM", "modifier": "=", "IC50": 528}
{"compound": "COc1cccc(-c2ccc3c(N4CCN(C(=O)OC(C)(C)C)CC4)cnn3c2)c1 [Compound 211]", "u": "nM", "modifier": "=", "IC50": 7380}
{"compound": "Cn1cc(-c2ccc3c(N4CCN(c5ncc(C(O)C6CCCCO6)cn5)CC4)cnn3c2)cn1 (centres unmarked) [Compound 194]", "u": "nM", "modifier": "=", "IC50": 195}

----------
# System: Oligodendrocyte progenitor cells (OPCs)
# experiment summary: In vitro OPC differentiation assay, GPR17 expression (immunocytochemistry)
# study conditions: 5 μM (10× concentration, final 0.5 μM); 72 hours; fold change over vehicle
test readout: GPR17 Fold Induction (Over Vehicle; 5 μM)

{"compound": "C[C@H](OC(=O)N1CCN(c2cnn3cc(-c4cnn(C)c4)ccc23)CC1)c1ccccc1", "value observed": 5.12}
{"compound": "Cn1cc(-c2ccc3c(N4CCN(c5ncc(Cc6ccccc6)cn5)CC4)cnn3c2)cn1", "value observed": 4.07}
{"compound": "Cn1cc(-c2ccc3c(N4CCN(c5ncc(C(O)c6ccc(F)cc6)cn5)CC4)cnn3c2)cn1 (centres unmarked)", "value observed": 4.97}
{"compound": "Cn1cc(-c2ccn3c(N4CCN(c5ncc(Cc6ccccc6)cn5)CC4)cnc3c2)cn1", "value observed": 3.98}
{"compound": "Cn1cc(-c2ccc3c(N4CCN(C(=O)OCCC5CCOCC5)CC4)cnn3c2)cn1", "value observed": 3.98}

----------
# Tested on: Oligodendrocyte progenitor cells (OPCs)
# experiment summary: In vitro OPC differentiation assay, GPR17 expression (immunocytochemistry)
# study conditions: 3 μM (10× concentration, final 0.3 μM); 72 hours; fold change over vehicle
Binary label based on GPR17 Fold Induction (Over Vehicle; 3 μM) with cut-off 4: below gives y, not below gives n.

{"molecule": "CC(C)(C)OC(=O)N1CCN(c2cnn3cc(-c4cncnc4)ccc23)CC1", "target or system": "Oligodendrocyte progenitor cells (OPCs)", "group label": "y"}
{"molecule": "CCC(O)c1ccc2c(N3CCN(C(=O)OC(C)(C)C)CC3)cnn2c1 (centres unmarked)", "target or system": "Oligodendrocyte progenitor cells (OPCs)", "group label": "y"}
{"molecule": "Cn1cc(-c2ccc3c(N4CCN(c5ncc(Cc6ccco6)cn5)CC4)cnn3c2)cn1", "target or system": "Oligodendrocyte progenitor cells (OPCs)", "group label": "n"}
{"molecule": "C[C@@H](OC(=O)N1CCN(c2cnn3cc(-c4cnn(C)c4)ccc23)CC1)c1ccc(OC(F)(F)F)cc1", "target or system": "Oligodendrocyte progenitor cells (OPCs)", "group label": "n"}
{"molecule": "Cn1cc(-c2ccc3c(N4CC(c5ncc(Cc6ccccc6)cn5)C4)cnn3c2)cn1", "target or system": "Oligodendrocyte progenitor cells (OPCs)", "group label": "n"}
{"molecule": "COc1ccccc1-c1ccc2c(N3CCN(C(=O)OC(C)(C)C)CC3)cnn2c1", "target or system": "Oligodendrocyte progenitor cells (OPCs)", "group label": "y"}
{"molecule": "CC(c1ccc(F)cc1)c1cnc(N2CCN(c3cnn4cc(-c5cnn(C)c5)ccc34)CC2)nc1 (centres unmarked)", "target or system": "Oligodendrocyte progenitor cells (OPCs)", "group label": "n"}
{"molecule": "Cn1cc(-c2ccc3c(N4CCN(c5ncc(Cc6ccccc6)cn5)CC4)cnn3c2)cn1", "target or system": "Oligodendrocyte progenitor cells (OPCs)", "group label": "n"}
{"molecule": "C[C@H](OC(=O)N1CCN(c2cnn3cc(-c4cnn(C)c4)ccc23)CC1)c1ccc(Cl)cc1", "target or system": "Oligodendrocyte progenitor cells (OPCs)", "group label": "n"}
{"molecule": "C[C@@H](OC(=O)N1CCN(c2cnn3cc(-c4cnn(C)c4)ncc23)CC1)c1ccccc1", "target or system": "Oligodendrocyte progenitor cells (OPCs)", "group label": "n"}
{"molecule": "Cn1cc(-c2ccc3c(N4CCN(C(=O)NCc5ccc(C(F)(F)F)cc5)CC4)cnn3c2)cn1", "target or system": "Oligodendrocyte progenitor cells (OPCs)", "group label": "y"}
{"molecule": "C[C@@H](OC(=O)N1CCN(c2cnn3cc(-c4cnn(C)c4)ccc23)CC1)c1ccc(Cl)cc1", "target or system": "Oligodendrocyte progenitor cells (OPCs)", "group label": "n"}
